assay: Phase 1 relative bioavailability study: plasma pharmacokinetics of midazolam, 1-hydroxymidazolam, ketamine and norketamine; conditions: human, plasma, iv, 3.5 mg, AUC0-t, midazolam, Treatment C: midazolam 3.5 mg IV; mean
endpoint-name: AUC(0-t) (ng·h/mL)

# test-smiles, result-unit, endpoint-result
rows = [
    ("Cc1ncc2n1-c1ccc(Cl)cc1C(c1ccccc1F)=NC2", "ng·h/mL", 168),
]

###

assay: Phase 1 relative bioavailability study: plasma pharmacokinetics of midazolam, 1-hydroxymidazolam, ketamine and norketamine; details: human, plasma, iv, 3.5 mg, GeoMean AUC0-t, midazolam, Ref (C) midazolam 3.5 mg IV; least squares geometric mean
endpoint-name: AUC(0-t)

# compound, endpoint-name, endpoint-result
rows = [
    ("Cc1ncc2n1-c1ccc(Cl)cc1C(c1ccccc1F)=NC2 [Midazolam]", "AUC(0-t)", "164 ng·h/mL"),
]

###

test: Phase 1 relative bioavailability study: plasma pharmacokinetics of midazolam, 1-hydroxymidazolam, ketamine and norketamine; settings: human, plasma, iv, 3.5 mg
endpoint-name: clearance

# compound, endpoint-result
measured = [
    ("Cc1ncc2n1-c1ccc(Cl)cc1C(c1ccccc1F)=NC2 [Midazolam]", "348 mL/min"),
]

###

assay: Phase 1 relative bioavailability study: plasma pharmacokinetics of midazolam, 1-hydroxymidazolam, ketamine and norketamine; details: human, plasma, iv, 3.5 mg, Cmax, midazolam, Treatment C: midazolam 3.5 mg IV; mean

# test-smiles, Cmax / ng/mL
measured = [
    ("Cc1ncc2n1-c1ccc(Cl)cc1C(c1ccccc1F)=NC2", 146),
]
